Record form. Attribute: IC50. Fill in for each entry.
Test system: HAP1 MTAP-deleted cell line
Assay: Viability assay, MTAP-deleted cell line
Format: cell-based
Details: Homo sapiens, HAP1, viability assay, MTAP-deleted cell line; read-out: HAP1 MTAP deleted viability

Worked cases, answers included:
>>> obs_value("Cc1cc(NC(=O)C(=O)N2C[C@H](C)CC[C@H]2c2cscn2)cnc1N (single isomer, unassigned)")
"> 10 µM"
>>> obs_value("C[C@@H]1CC[C@@H]([C@@H]2CCC(O)C2)N(C(=O)C(=O)Nc2cncc(C(N)=O)c2)C1 (mixture of isomers)")
"> 10 µM"

Required: IC50, one value per molecule below.
1. Cc1cccc([C@H]2CCCCN2C(=O)C(=O)Nc2cnc(N)c(C)c2)c1 (single isomer, unassigned)
2. C[C@H]1CC[C@H](C2CCCCC2)N(C(=O)C(=O)Nc2cncc(C(N)=O)c2)C1 (single isomer, unassigned)
3. C[C@@H]1CC[C@@H](c2ccc(-c3ccn[nH]3)cc2)N(C(=O)C(=O)Nc2cncc(C(N)=O)c2)C1 (racemic)
4. Cc1cc(NC(=O)C(=O)N2CCCC[C@@H]2C(C)C)cnc1N (single isomer, unassigned)
5. Cc1ccc([C@@H]2CC[C@@H](C)CN2C(=O)C(=O)Nc2cncc(C(N)=O)c2)cc1Cl (racemic)
6. COc1ccc([C@@H]2CC[C@@H](C)CN2C(=O)C(=O)Nc2cncc(C(N)=O)c2)cc1F (racemic)

a:
1. 1 to 10 µM
2. > 10 µM
3. 1 to 10 µM
4. > 10 µM
5. 1 to 10 µM
6. 1 to 10 µM

The reported measurements were obtained from patent US11999727B2.
